Numbers sourced from patent US8993542B2.

Test system: HIV
Assay: microbe, parasite or virus in culture
Type: cell-based
Settings: Human immunodeficiency virus 1, PANEL 31, K65R − SDM
attributeMeasured: log10 IC50 (log10 of the value in µM)
Reminder: these figures are log10 of reported IC50, in µM before transformation.

// input: 5 molecules below; output: log10 IC50 for each
1. Nc1ccn([C@@H]2CS[C@H](CO)O2)c(=O)n1 [3TC]
2. Nc1nc(=O)n(C2CSC(CO)O2)cc1F (stereo not shown) [FTC]
3. Cc1cn([C@H]2C=C[C@@H](CO)O2)c(=O)[nH]c1=O [d4T, 2′,3′-didehydro-3′-deoxythymidine]
4. Nc1nc(NC2CC2)c2ncn([C@H]3C=C[C@@H](CO)C3)c2n1 [ABC, abacavir]
5. CCCCCCCCCCCCCCCCOCCCOP(=O)(O)CO[C@H](C)Cn1cnc2c(N)ncnc21 [CMX157]

1.64
1.11
-0.08
0.66
-2.33

Dear colleague, could you send me log10 IC50 for each of the items below? Thanks.
1. Cc1cn([C@H]2C[C@H](N=[N+]=[N-])[C@@H](CO)O2)c(=O)[nH]c1=O [ZDV, 3′-azido-2′,3′-dideoxythymdine]
2. OC[C@@H]1CC[C@H](n2cnc3c(O)ncnc32)O1 [ddI, 2′,3′-dideoxyinosine]

1: -1.85; 2: 1.04
